FYI, the data here is from patent US20230399319A1.

- Measurement target: UniProt Q96P20
- Sequence (Q96P20 whole entry): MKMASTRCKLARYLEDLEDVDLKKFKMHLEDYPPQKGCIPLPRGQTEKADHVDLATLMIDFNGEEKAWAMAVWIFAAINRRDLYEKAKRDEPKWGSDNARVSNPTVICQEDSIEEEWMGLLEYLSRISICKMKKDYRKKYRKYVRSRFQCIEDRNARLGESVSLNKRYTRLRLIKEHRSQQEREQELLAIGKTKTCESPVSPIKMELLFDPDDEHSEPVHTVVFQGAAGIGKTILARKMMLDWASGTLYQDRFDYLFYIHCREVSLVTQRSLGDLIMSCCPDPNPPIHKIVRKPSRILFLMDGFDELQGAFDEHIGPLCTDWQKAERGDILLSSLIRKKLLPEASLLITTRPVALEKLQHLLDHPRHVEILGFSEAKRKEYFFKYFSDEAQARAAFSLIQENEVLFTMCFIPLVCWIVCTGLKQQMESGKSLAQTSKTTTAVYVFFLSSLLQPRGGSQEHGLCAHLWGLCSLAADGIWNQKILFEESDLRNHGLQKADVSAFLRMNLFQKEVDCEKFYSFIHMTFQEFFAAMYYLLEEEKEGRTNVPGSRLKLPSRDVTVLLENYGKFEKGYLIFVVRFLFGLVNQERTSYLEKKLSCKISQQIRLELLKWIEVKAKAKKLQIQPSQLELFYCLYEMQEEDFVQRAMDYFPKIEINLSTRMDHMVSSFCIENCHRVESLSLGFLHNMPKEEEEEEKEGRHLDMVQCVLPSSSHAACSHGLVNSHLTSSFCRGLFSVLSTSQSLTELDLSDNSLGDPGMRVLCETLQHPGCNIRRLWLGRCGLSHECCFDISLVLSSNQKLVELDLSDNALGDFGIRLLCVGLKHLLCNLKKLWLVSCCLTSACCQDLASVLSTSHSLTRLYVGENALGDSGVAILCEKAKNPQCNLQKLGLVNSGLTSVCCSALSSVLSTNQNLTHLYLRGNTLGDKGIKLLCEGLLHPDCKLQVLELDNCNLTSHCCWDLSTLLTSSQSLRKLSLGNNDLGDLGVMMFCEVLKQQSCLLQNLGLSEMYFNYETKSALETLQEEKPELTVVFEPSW
- Protocol notes: Evaluation of NLRP3 inflammasome inhibitory activity (inhibition of IL-1β production in THP1-Null cells, LPS/Nigericin)
- Condition info: IL-1β production in THP1-Null cells, PMA/LPS primed, Nigericin 7.5 μmol/L
Property measured: IC50 (nM)

{"columns": ["Compound", "IC50 (nM)"],
 "data": [
  ["Cc1ccc(C(F)(F)F)cc1Nc1nc(C(=O)NS(=O)(=O)N2CCC(S(=O)(=O)N(C)C)CC2)co1", 32]
]}

P. CCOC(=O)c1c2c(nn1C)CN(S(=O)(=O)NC(=O)c1coc(Nc3c4c(c(F)c5c3CCC5)CCC4)n1)C2
Q. CN(C)S(=O)(=O)NC(=O)c1cnc(Nc2c3c(c(F)c4c2CCC4)CCC3)o1
R. CS(=O)(=O)C1CCN(S(=O)(=O)NC(=O)c2coc(Nc3c4c(c(F)c5c3CCC5)CCC4)n2)CC1
S. O=C(NS(=O)(=O)N1CCCn2nccc21)c1coc(Nc2c3c(c(Cl)c4c2CCC4)CCC3)n1
Arrange items by their IC50 values in increasing order. Answer format: the labels, in the requested order.
R, Q, S, P
(R: 39 nM, Q: 130 nM, S: 350 nM, P: 840 nM)

P. CC1(O)CCN(S(=O)(=O)NC(=O)c2coc(Nc3c4c(c(F)c5c3CCC5)CCC4)n2)C1 (racemic)
Q. CN(C)S(=O)(=O)NC(=O)c1coc(Nc2c3c(cc4c2CCC4)CCC3)n1
Choose between P and Q : whose measured IC50 value is numerically larger? Response format: the label of the selected entry.
P

* * *

- Measurement target: UniProtKB Q96P20
- Protocol notes: Evaluation of NLRP3 inflammasome inhibitory activity (inhibition of IL-1β production in THP1-Null cells, LPS/Nigericin)
- Condition info: inhibition of IL-1β production in THP1-Null cells
pIC50: −log10 of the molar value.
Property measured: pIC50

{"columns": ["Compound", "Measurement target", "Measured result"],
 "data": [
  ["Cc1cnc(C(F)(F)F)cc1Nc1nc(C(=O)NS(=O)(=O)N2CCCOCC2)co1 [Example 2-075]", "UniProtKB Q96P20", 5.35],
  ["CCOCC1CCN(S(=O)(=O)NC(=O)c2coc(Nc3nn(C(C)C)cc3C(C)C)n2)CCO1 (stereo not shown) [Example 2-344]", "UniProtKB Q96P20", 7.19],
  ["Cc1ccc(C(C)(F)F)cc1Nc1nc(C(=O)NS(=O)(=O)N(C)C)co1 [Example 2-013]", "UniProtKB Q96P20", 7.19],
  ["COC1CN(S(=O)(=O)NC(=O)c2coc(Nc3cc(C(F)(F)F)ccc3C)n2)C1 [Example 2-057]", "UniProtKB Q96P20", 6.24],
  ["COC1CCN(S(=O)(=O)NC(=O)c2coc(Nc3cc(C(F)(F)F)ccc3C)n2)CC1 [Example 2-158]", "UniProtKB Q96P20", 7.00]
]}

I. Cc1ccc(C(C)(C)C)cc1Nc1nc(C(=O)NS(=O)(=O)N(C)C)co1 [Example 2-069]
II. Cc1ccc2c(c1Nc1nc(C(=O)NS(=O)(=O)N(C)C)cs1)CCC2 [Example 2-083]
Could you determine which record has the numerically smaller pIC50? Candidates: I and II Write the label of whichever entry you select.
II
(II: 6.31, I: 7.18)

P. Cc1ccc(C(C)C)c(Nc2nc(C(=O)NS(=O)(=O)N3CCCOCC3)co2)c1 [Example 2-308]
Q. Cc1ccc(C2(C#N)CC2)cc1Nc1nc(C(=O)NS(=O)(=O)N2CCCOCC2)co1 [Example 2-107]
// pick larger pIC50 from pair: P vs Q Mark your answer with the label of the selected entry.
P
(P: 7.09, Q: 6.82)
